Target: T1, human CD200R1 expressed on cells (Jurkat-CD200R1, U937-CD200R1, HH cells) (human, UniProt Q8TD46 25-348)
T1 construct: whole, on cells; also called HH (CRL-2105); cell surface-expressed CD200R1
T1 sequence (looked up): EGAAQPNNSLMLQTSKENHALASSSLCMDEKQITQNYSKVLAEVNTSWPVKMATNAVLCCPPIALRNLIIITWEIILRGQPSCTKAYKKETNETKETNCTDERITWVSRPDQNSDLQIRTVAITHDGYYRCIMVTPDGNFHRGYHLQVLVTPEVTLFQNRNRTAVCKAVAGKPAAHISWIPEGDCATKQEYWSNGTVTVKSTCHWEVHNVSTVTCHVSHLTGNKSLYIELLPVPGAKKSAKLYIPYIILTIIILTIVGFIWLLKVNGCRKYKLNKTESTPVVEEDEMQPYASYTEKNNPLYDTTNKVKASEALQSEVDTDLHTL
Assay: flow cytometry, HH cells; drawn table
Measured endpoint: Geo mean (%) at 0.78 nM
Report as a plain number; the unit % is understood.

binder="P001018 scFv mutant L3-R92S (scFv) scFv: QVQLVQSGAEVKKPGASVKVSCKASGYTFTSYVMHWVRQAPGQGLEWMGYINPYNDDTNYNEKFKGRVTMTRDTSTSTVYMELSSLRSEDTAVYYCAREDYYGSRWGYWGQGTLVTVSSGGGGSGGGGSGGGGSDIVLTQSPASLAVSPGQRATITCRASKSVSTSGYSYMHWYQQKPGQPPKLLIYLASNLESGVPARFSGSGSGTDFTLTINPVEANDTANYYCQHSSELLTFGQGTKVEIK" uom=% quantitative_result=12
binder="P001018 scFv mutant L3-R92H (scFv) scFv: QVQLVQSGAEVKKPGASVKVSCKASGYTFTSYVMHWVRQAPGQGLEWMGYINPYNDDTNYNEKFKGRVTMTRDTSTSTVYMELSSLRSEDTAVYYCAREDYYGSRWGYWGQGTLVTVSSGGGGSGGGGSGGGGSDIVLTQSPASLAVSPGQRATITCRASKSVSTSGYSYMHWYQQKPGQPPKLLIYLASNLESGVPARFSGSGSGTDFTLTINPVEANDTANYYCQHSHELLTFGQGTKVEIK" uom=% quantitative_result=19.8
binder="P001018 scFv mutant L3-L95D (scFv) scFv: QVQLVQSGAEVKKPGASVKVSCKASGYTFTSYVMHWVRQAPGQGLEWMGYINPYNDDTNYNEKFKGRVTMTRDTSTSTVYMELSSLRSEDTAVYYCAREDYYGSRWGYWGQGTLVTVSSGGGGSGGGGSGGGGSDIVLTQSPASLAVSPGQRATITCRASKSVSTSGYSYMHWYQQKPGQPPKLLIYLASNLESGVPARFSGSGSGTDFTLTINPVEANDTANYYCQHSRELDTFGQGTKVEIK" uom=% quantitative_result=16.4

Turning now to a further record.
Given the binder P001018 scFv mutant L3-T96R (scFv) scFv: QVQLVQSGAEVKKPGASVKVSCKASGYTFTSYVMHWVRQAPGQGLEWMGYINPYNDDTNYNEKFKGRVTMTRDTSTSTVYMELSSLRSEDTAVYYCAREDYYGSRWGYWGQGTLVTVSSGGGGSGGGGSGGGGSDIVLTQSPASLAVSPGQRATITCRASKSVSTSGYSYMHWYQQKPGQPPKLLIYLASNLESGVPARFSGSGSGTDFTLTINPVEANDTANYYCQHSRELLRFGQGTKVEIK , what is its reported Geo mean (%) at 0.78 nM? 19.4
